# Tested on: HT-1197 cells
# test_details: Cell-based assay: anti-proliferative activity, Cell Counting Kit-8, 72 hours (HT-1197, negative control without MELK expression)
# experimental_conditions: Homo sapiens, HT1197, 72 h, HT1197 cells (negative control, no MELK expression), 72 hours
reported_endpoint: IC50 (µM)
Report as a plain number; the unit µM is understood.

Solved cases below.
> print(dat)
                                   compound  value.observed
1  COC(=O)c1ccc(-c2ccc3ncc(C(=O)C4CC4)c(N4CCC(CN(C)C)CC4)c3c2)cc1 [Example 481]              10
2  O=C(c1cnc2ccc(-c3cc(F)c(O)c(Cl)c3)cc2c1N[C@H]1CC[C@H](CN2CCC(O)C2)CC1)C1CC1 (stereo partly shown) [Example 631]            0.85
3  CCC(=O)c1cnc2ccc(-c3cc(Cl)c(O)c(OC)c3)cc2c1N[C@H]1CC[C@H](N(C)C)CC1 [Example 755]             3.4
4  COc1cc(-c2ccc3ncc(C(=O)C4CC4)c(Nc4ccc(N5CCC(N(C)C)C5)nc4)c3c2)cc(Cl)c1O (stereo not shown) [Example 689]             9.4
5  NC[C@H]1CC[C@H](Nc2c(C(=O)C3CC3)cnc3ccc(-c4cc(F)c(O)c(Cl)c4)cc23)CC1 [Example 501]             1.2
6  CCC(=O)c1cnc2ccc(-c3cc(Cl)c(O)c(Cl)c3)cc2c1N[C@H]1CC[C@H](N(C)C)CC1 [Example 754]              10

# next compound below
QUERY: I'd like to know its IC50. The compound in question is CS(=O)(=O)c1cnc2ccc(-c3cc(F)c(O)c(Cl)c3)cc2c1N1CCC(CN2CCCC2)CC1 [Example 407]
RESULT: 6.5

---

# Test system: T47D cells
# test_details: Cell-based assay: anti-proliferative activity, Cell Counting Kit-8, 72 hours (T47D)
# experimental_conditions: Homo sapiens, T47D, 72 h
Counter-ions that a name gives are not always drawn.
reported_endpoint: IC50 (µM)
Report as a plain number; the unit µM is understood.

> print(dat)
                                   molecule  measure.unit  value.observed
1  CC(C)C(=O)c1cnc2ccc(-c3cc(Cl)c(O)c(Cl)c3)cc2c1N[C@H]1CC[C@H](CN(C)C)CC1            µM            0.15
2  CC(=O)c1cnc2ccc(-c3cc(Cl)c(O)c(Cl)c3)cc2c1Nc1cnn(C2CCN(C)CC2)c1 [Example 836, dihydrochloride]            µM            0.35
3  CN(C)C[C@H]1CC[C@@H](Nc2c(C(=O)C3CC3)cnc3ccc(-c4cc(Cl)c(O)c(Cl)c4)cc23)CC1            µM            0.29
4  CCC(=O)c1cnc2ccc(-c3cc(Cl)c(O)c(Cl)c3)cc2c1Nc1ccc(N2CCN(C)CC2)nc1            µM            0.31

QUERY: I'd like to know its IC50. The molecule in question is CCC(=O)c1cnc2ccc(-c3cc(F)c(O)c(Cl)c3)cc2c1Nc1ccc(N2CCC(N)C2)nc1 (stereo not shown)
RESULT: 0.0087

QUERY: I'd like to know its IC50. The molecule in question is `CC(=O)c1cnc2ccc(-c3cc(Cl)c(O)c(Cl)c3)cc2c1Nc1ccc(CN2CCCC2)cc1`
RESULT: 0.12

QUERY: I'd like to know its IC50. The molecule in question is `CCC(=O)c1cnc2ccc(-c3cc(Cl)c(O)c(OC)c3)cc2c1Nc1ccc(CN(C)C)cc1`
RESULT: 0.12
